target: UniProtKB Q13224; assay: FLIPR Assay: At the assay day cells were washed 3× with assay buffer, 10 μL buffer remained in the wells after washing. 10 μL Ca kit loading buffer (AAT Bioquest) was added to the cells and the plates were incubated with lid for 60 minutes at r.t. 20 μl assay buffer containing 60 μM glycine (20 μM final) and 3 μM glutamate (1 μM final) was added to column 1-23. Fluorescence (indicating the calcium influx as a result of the NR1/NR2B ion channel activation) was read on the FLIPRtetra device for 60 seconds to monitor the glutamate induced effects. After 2 minutes 20 μL of compound or controls (row 1-22) in assay buffer were carefully added to the wells. […] Each assay microtiter plate contained wells (in column 23 or 24) with DMSO controls instead of compound as controls for glycine/glutamate induced fluorescence (high controls) and wells with 1 μM of a reference NR2b NAM as low controls (Compound 22; reference: Layton, Mark E et al, ACS Chemical Neuroscience 2011, 2(7), 352-362).
Sequence (Q13224 whole entry): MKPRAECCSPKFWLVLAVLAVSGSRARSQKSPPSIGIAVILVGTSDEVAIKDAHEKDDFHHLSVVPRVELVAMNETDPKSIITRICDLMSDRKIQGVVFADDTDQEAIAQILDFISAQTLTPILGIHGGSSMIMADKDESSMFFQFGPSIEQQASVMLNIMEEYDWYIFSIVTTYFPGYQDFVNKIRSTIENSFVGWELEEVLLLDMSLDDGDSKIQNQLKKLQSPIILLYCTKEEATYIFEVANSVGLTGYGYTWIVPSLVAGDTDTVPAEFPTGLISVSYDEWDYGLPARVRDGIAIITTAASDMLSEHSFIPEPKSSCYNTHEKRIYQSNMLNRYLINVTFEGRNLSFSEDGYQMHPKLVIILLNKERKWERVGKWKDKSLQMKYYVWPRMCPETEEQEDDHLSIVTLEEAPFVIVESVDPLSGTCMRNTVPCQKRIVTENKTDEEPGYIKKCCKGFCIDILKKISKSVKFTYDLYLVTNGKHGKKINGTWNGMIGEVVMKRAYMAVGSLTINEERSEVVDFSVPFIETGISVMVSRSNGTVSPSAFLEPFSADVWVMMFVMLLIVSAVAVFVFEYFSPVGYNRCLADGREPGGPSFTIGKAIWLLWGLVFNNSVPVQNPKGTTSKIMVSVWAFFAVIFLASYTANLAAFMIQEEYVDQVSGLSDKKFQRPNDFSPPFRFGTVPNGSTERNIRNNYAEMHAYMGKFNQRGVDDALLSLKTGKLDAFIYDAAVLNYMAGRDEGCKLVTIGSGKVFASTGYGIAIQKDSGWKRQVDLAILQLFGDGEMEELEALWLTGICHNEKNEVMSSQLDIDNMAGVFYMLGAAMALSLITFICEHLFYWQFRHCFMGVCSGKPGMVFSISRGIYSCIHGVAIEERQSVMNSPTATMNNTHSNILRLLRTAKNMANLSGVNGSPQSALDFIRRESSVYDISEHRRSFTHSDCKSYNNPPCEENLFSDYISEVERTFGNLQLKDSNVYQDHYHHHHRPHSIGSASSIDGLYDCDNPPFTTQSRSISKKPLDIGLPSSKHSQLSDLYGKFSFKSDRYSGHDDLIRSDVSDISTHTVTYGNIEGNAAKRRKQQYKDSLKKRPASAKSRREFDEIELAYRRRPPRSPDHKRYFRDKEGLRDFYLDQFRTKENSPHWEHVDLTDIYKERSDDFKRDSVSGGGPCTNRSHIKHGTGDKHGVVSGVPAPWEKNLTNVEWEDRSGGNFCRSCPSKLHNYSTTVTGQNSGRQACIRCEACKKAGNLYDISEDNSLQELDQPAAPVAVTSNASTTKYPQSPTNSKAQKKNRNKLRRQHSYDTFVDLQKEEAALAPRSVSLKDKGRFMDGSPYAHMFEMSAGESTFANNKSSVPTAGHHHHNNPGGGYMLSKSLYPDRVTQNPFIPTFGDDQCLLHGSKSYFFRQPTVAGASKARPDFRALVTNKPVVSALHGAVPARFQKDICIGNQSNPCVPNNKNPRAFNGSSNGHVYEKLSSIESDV
pIC50: −log10 of the molar value.
Label scheme for pIC50: lower than 7 is -1, 7 and above is 1.

Look over these answered cases.
- Cc1ncnc2[nH]c(C3CN(C(=O)OCc4ccccc4F)CCO3)nc12 (stereo not given): -1
- O=C(OCc1cccc(F)c1)N1CCOC(c2nc3cncnc3[nH]2)C1 (stereo not given): -1
- O=C(OCc1ccc(Cl)c(F)c1)N1CCOC(c2nc3cncnc3[nH]2)C1 (stereo not given): -1

Form field: pIC50 at least 7? Entry: O=C(OCc1ccc(F)c(F)c1)N1CCOC(c2nc3cncnc3[nH]2)C1 (stereo not given)
-1

Form field: pIC50 at least 7? Entry: O=C(OCc1cccc(F)c1F)N1CCOC(c2nc3cncnc3[nH]2)C1 (stereo not given)
1

Form field: pIC50 at least 7? Entry: Cc1c(F)cccc1COC(=O)N1CCOC(c2nc3cncnc3[nH]2)C1 (stereo not given)
-1

Form field: pIC50 at least 7? Entry: Cc1ccc(COC(=O)N2CCOC(c3nc4cncnc4[nH]3)C2)c(F)c1 (stereo not given)
1

Form field: pIC50 at least 7? Entry: O=C(OCc1ccc(C(F)F)cc1)N1CCOC(c2nc3cncnc3[nH]2)C1 (stereo not given)
1

Form field: pIC50 at least 7? Entry: Cc1ncnc2[nH]c(C3CN(C(=O)OCc4ccc(F)cc4)CCO3)nc12 (stereo not given)
-1

Form field: pIC50 at least 7? Entry: Cc1cc(F)ccc1COC(=O)N1CCOC(c2nc3cncnc3[nH]2)C1 (stereo not given)
-1

Form field: pIC50 at least 7? Entry: Cc1cccc(COC(=O)N2CCOC(c3nc4cncnc4[nH]3)C2)c1 (stereo not given)
-1
